Entries annotated with measured pIC50
- TARGET_OR_TEST_SYSTEM: UniProtKB P14902
- METHOD: Inhibition of human IDO1 expressed in mouse LLTC cells using L-tryptophan as substrate after 24 hrs
- Format: cell-based
- Sequence (P14902 whole entry): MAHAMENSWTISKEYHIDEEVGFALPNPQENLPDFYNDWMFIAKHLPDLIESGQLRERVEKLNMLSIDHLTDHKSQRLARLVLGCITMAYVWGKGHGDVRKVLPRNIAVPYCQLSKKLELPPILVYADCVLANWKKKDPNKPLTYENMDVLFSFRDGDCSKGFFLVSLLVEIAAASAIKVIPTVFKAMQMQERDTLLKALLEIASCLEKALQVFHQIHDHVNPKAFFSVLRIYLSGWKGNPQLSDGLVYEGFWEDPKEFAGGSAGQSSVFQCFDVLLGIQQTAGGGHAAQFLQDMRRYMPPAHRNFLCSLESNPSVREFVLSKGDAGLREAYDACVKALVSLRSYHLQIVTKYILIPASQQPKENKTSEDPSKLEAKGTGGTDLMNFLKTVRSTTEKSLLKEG
Please note pIC50 is a logarithmic value: minus log10 of concentration in mol/L. Answer with that number alone.

>  <MOLECULE>
NNc1ccccc1 [PHENYLHYDRAZINE]

>  <VALUE>
5.89

$$$$

Lookup: Field request: pIC50 | item: NNc1nc2ccccc2s1
Found: 4.21

---

- TARGET_OR_TEST_SYSTEM: Indoleamine 2,3-dioxygenase 1 (Homo sapiens)
- METHOD: Inhibition of recombinant human IDO1 expressed in Escherichia coli EC538 using L-tryptophan as substrate at 0.1 mM after 1 hr relative to control
- Sequence (P14902 whole entry, looked up): as the sequence (P14902 whole entry) above
Entries annotated with measured inhibition
// return numeric value only (unit: %, not printed)

Lookup: Field request: inhibition | item: NNc1nc2cc(C(F)(F)F)ccc2s1
Found: 46

Lookup: # iterate: Cc1ccc2nc(NN)sc2c1
Found: 37

Lookup: # iterate: N#CCCN(N)c1nc2ccccc2s1
Found: 2

Lookup: # iterate: NNC(=O)c1ccc2nc(NN)sc2c1
Found: -1

Lookup: # iterate: NNc1nc2cc(Cl)ccc2s1
Found: 86

Lookup: # iterate: NNc1nc2ccccc2s1
Found: 91

Lookup: # iterate: CC(C)=NNc1nc2ccccc2s1
Found: 30

Lookup: # iterate: O=C(O)/C=N/Nc1nc2ccccc2s1
Found: 13

The reported numbers originate from ChEMBL document CHEMBL3091438.
